Source of measurements: patent US7932262B2

- measured_target: UniProt:O15530
- assay: PDK1 Kinase Alpha Screen Assay
- Format: biochemical
- condition_details: read-out: PDK1 IC50
Reported IC50 is given for each of the following compounds.

Below are worked cases with known answers.
NC(=O)c1ccc(-c2cccc3cnc(Nc4ccc(S(N)(=O)=O)cc4)nc23)cc1 = < 5 µM
CC(C)N1CCC(Oc2cccc3cnc(Nc4cccc(N5CCOCC5)c4)nc23)CC1 = < 5 µM
NC(=O)C1CCN(Cc2cccc3cnc(Nc4ccc(S(N)(=O)=O)cc4)nc23)CC1 = < 5 µM
CC(=O)Nc1cccc(-c2ccc3cnc(Nc4ccc(S(N)(=O)=O)cc4)nc3c2)c1 = 5 to 10 µM
CN1CCC(Oc2cccc3cnc(Nc4ccc(S(N)(=O)=O)cc4)nc23)CC1 = < 5 µM

(Q) Return the recorded IC50 value; entry: COCCNC(=O)c1cccc2cnc(Nc3ccc(S(N)(=O)=O)cc3)nc12
(A) 5 to 10 µM

(Q) Return the recorded IC50 value; entry: NS(=O)(=O)c1ccc(Nc2ncc3cccc(C(=O)N4CCCC4)c3n2)cc1
(A) < 5 µM

(Q) Return the recorded IC50 value; entry: CC(C)N1CCN(C(=O)c2ccc3cnc(Nc4ccc(S(N)(=O)=O)cc4)nc3c2)CC1
(A) 10 to 25 µM

---

- measured_target: PDK1 kinase (Homo sapiens, UniProt O15530)
- Sequence (O15530 whole entry): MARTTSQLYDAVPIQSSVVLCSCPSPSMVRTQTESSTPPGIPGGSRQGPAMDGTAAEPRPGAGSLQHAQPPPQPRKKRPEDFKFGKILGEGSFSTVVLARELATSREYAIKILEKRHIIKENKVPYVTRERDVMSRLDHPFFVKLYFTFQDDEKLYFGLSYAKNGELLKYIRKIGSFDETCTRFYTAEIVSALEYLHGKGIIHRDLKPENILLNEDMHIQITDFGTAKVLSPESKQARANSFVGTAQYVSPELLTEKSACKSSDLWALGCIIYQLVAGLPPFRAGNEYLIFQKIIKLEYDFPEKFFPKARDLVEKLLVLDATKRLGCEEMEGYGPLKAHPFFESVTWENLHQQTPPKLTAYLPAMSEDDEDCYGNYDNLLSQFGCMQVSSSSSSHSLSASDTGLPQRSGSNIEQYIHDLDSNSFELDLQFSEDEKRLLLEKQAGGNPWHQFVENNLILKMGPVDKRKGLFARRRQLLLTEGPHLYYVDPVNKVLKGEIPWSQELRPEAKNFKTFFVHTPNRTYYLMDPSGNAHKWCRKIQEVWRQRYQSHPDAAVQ
- assay: PDK1 Kinase Alpha Screen Assay
- Assay type: biochemical
- condition_details: PDK1 Kinase Alpha Screen Assay; read-out: PDK1 IC50
Reported IC50 is given for each of the following compounds.

(Q) Return the recorded IC50 value; entry: Cc1ccc(OC2CCNCC2)c2nc(Nc3ccc(N4CCOCC4)c(F)c3)ncc12
(A) < 5 µM

---

- Tested on: pAkt308 (phosphorylation of Akt at T308) in PC-3 cells
- assay: pAkt T308 ECL Assay in PC-3 cells
- Assay type: cell-based
- condition_details: Homo sapiens, 6 h, six hours with compound, read-out: PAKT308 PC3 IC50
pIC50: −log10 of the molar value.
quantity_kind: pIC50

Below are worked cases with known answers.
Nc1ccc(-c2ccc3cnc(Nc4ccc(S(N)(=O)=O)cc4)nc3c2OC2CCNCC2)cn1 = 5.00 to 5.30
NS(=O)(=O)c1ccc(Nc2ncc3ccc(-c4cccnc4F)cc3n2)cc1 = > 5.30
CC(C)N1CCC(Oc2cccc3cnc(Nc4ccc(S(=O)(=O)N5CCOCC5)cc4)nc23)CC1 = > 5.30

Please examine the following record next.
(Q) Return the recorded pIC50 value; entry: NS(=O)(=O)c1ccc(Nc2ncc3ccc(-c4cccnc4)c(OC4CCNCC4)c3n2)cc1
(A) 5.00 to 5.30

---

- Tested on: pAkt308 (phosphorylation of Akt at T308) in PC-3 cells
- assay: pAkt T308 ECL Assay in PC-3 cells
- Type: cell-based
- condition_details: Homo sapiens, 6 h, six hours with compound, read-out: PAKT308 PC3 IC50
pIC50: −log10 of the molar value.
quantity_kind: pIC50

Below are worked cases with known answers.
Cn1cc(-c2ccc3cnc(Nc4ccc(S(N)(=O)=O)cc4)nc3c2OC2CCNCC2)cn1 [Compound 25] = 5.00 to 5.30
COc1cncc(-c2ccc3cnc(Nc4ccc(S(N)(=O)=O)cc4)nc3c2OC2CCNCC2)c1 [Compound 23] = 5.00 to 5.30
CN1C2CCC1CC(Oc1cccc3cnc(Nc4ccc(S(N)(=O)=O)cc4)nc13)C2 (stereo not drawn) [Compound 41] = > 5.30
O=S(=O)(NC1CC1)c1ccc(Nc2ncc3cccc(OC4CCNCC4)c3n2)cc1 [Compound 13] = > 5.30
O=S(=O)(c1ccc(Nc2ncc3cccc(OC4CCNCC4)c3n2)cc1)N1CCOCC1 [Compound 3] = > 5.30
CC(C)NS(=O)(=O)c1ccc(Nc2ncc3cccc(OC4CCNCC4)c3n2)cc1 [Compound 11] = > 5.30
CC(C)NS(=O)(=O)c1ccc(Nc2ncc3ccc(OC4CCN(C(C)C)CC4)cc3n2)cc1 [Compound 58] = > 5.30
NS(=O)(=O)c1ccc(Nc2ncc3ccc(-c4cnccn4)c(OC4CCNCC4)c3n2)cc1 [Compound 66] = 5.00 to 5.30
CC(C)N1CCC(Oc2cccc3cnc(Nc4ccc(N5CCOCC5)cc4)nc23)CC1 [Compound 72] = > 5.30
CC(C)N1CCC(Oc2cccc3cnc(Nc4ccc(S(N)(=O)=O)cc4)nc23)CC1 [Compound 36] = > 5.30

(Q) Return the recorded pIC50 value; entry: NS(=O)(=O)c1ccc(Nc2ncc3cccc(OC4CCNCC4)c3n2)cc1 [Compound 31]
(A) > 5.30

(Q) Return the recorded pIC50 value; entry: NS(=O)(=O)c1ccc(Nc2ncc3cc(Br)cc(OC4CCNCC4)c3n2)cc1 [Compound 1]
(A) 5.00 to 5.30

(Q) Return the recorded pIC50 value; entry: C#Cc1cc(OC2CCN(C(C)C)CC2)c2nc(Nc3ccc(S(N)(=O)=O)cc3)ncc2c1 [Compound 86]
(A) > 5.30

(Q) Return the recorded pIC50 value; entry: Fc1ccc(Nc2ncc3ccc(OC4CCNCC4)cc3n2)cc1 [Compound 59]
(A) > 5.30

(Q) Return the recorded pIC50 value; entry: CC(C)Cn1cc(-c2ccc3cnc(Nc4ccc(S(N)(=O)=O)cc4)nc3c2OC2CCNCC2)cn1 [Compound 65]
(A) 5.00 to 5.30
